study.system: Receptor tyrosine-protein kinase erbB-4 (Homo sapiens) (UniProt Q15303)
Sequence (Q15303 whole entry): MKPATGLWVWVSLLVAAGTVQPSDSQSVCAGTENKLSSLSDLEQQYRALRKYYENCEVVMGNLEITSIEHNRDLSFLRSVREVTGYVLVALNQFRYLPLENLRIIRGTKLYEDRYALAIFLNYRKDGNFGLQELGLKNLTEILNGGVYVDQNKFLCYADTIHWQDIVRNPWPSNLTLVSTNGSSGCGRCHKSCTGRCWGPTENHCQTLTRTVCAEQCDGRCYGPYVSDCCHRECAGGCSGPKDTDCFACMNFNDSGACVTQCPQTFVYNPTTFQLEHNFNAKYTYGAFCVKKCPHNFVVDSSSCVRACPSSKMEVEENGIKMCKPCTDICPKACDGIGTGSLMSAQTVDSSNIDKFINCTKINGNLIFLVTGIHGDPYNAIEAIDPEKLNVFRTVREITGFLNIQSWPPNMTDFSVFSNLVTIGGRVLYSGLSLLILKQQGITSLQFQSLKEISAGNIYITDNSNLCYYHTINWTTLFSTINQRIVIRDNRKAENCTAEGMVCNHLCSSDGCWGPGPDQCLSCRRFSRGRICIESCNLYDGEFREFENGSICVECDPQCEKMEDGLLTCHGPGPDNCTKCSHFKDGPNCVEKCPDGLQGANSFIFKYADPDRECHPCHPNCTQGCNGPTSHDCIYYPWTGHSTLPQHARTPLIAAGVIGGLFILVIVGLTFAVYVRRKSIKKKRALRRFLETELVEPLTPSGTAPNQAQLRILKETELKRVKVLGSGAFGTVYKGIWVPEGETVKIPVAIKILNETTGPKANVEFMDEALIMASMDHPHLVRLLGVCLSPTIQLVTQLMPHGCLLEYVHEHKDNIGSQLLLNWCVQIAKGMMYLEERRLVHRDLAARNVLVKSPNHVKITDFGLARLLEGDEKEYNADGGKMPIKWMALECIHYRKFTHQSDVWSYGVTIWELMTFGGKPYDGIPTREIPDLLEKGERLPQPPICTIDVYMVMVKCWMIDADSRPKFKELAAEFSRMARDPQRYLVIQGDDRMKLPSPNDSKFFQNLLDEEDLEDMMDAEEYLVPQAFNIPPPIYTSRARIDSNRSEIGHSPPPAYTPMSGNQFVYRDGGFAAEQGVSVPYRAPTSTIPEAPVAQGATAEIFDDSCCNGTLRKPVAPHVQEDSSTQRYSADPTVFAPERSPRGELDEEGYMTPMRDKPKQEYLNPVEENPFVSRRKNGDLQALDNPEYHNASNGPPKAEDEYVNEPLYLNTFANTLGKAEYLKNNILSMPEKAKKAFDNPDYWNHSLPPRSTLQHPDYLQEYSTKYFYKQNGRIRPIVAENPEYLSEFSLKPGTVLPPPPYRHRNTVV
settings: at 10 µM
Record form. Attribute: residual activity. Fill in for each entry.
Numbers only, in %.

Example results:
CSc1nc(-c2ccc(F)cc2)c(-c2ccnc(NC(C)c3ccccc3)c2)[nH]1 (stereo not drawn) :: 85
COc1ccc(COc2ccc(Cc3cnc(N)nc3N)cc2OC)cc1 :: 70

# context switch: different compound, same residual activity
Ask: API: value(readout= residual activity, system= Receptor tyrosine-protein kinase erbB-4 (Homo sapiens) (UniProt Q15303), query= COc1cc2nccc(Oc3ccc(NC(=O)Nc4cc(C)on4)c(Cl)c3)c2cc1OC )
Result: 75

====

For each of the compounds below, state its residual activity.
study.system: Serine/threonine-protein kinase 10 (Homo sapiens) (UniProt O94804)
Sequence (O94804 whole entry, looked up): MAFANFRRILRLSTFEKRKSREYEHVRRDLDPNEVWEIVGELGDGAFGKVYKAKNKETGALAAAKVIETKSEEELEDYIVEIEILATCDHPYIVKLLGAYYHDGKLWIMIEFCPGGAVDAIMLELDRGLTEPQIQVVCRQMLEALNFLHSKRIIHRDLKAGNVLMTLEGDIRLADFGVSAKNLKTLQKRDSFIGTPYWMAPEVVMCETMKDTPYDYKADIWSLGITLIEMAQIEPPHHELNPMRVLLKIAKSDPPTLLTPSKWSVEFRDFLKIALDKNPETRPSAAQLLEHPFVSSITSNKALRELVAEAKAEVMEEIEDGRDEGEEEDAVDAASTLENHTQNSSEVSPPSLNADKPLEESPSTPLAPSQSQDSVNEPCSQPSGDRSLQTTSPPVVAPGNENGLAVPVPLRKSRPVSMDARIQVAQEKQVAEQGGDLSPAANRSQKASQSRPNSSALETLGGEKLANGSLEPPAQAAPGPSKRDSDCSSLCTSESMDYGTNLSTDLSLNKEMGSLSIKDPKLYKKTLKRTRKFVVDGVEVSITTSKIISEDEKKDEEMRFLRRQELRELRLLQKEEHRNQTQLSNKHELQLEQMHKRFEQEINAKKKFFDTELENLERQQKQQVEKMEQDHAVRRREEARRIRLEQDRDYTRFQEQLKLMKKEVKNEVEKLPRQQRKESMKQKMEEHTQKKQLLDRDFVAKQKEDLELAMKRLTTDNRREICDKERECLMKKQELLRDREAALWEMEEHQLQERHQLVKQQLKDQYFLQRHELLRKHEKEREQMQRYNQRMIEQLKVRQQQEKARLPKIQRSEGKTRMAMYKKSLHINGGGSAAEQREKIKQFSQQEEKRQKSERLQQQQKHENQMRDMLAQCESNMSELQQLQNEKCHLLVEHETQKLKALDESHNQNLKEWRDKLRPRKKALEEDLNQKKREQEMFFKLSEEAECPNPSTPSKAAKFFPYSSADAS
settings: at 1 µM
Answers are plain numbers, in %.

Guide cases for residual activity, answers given:
O=S(=O)(NCCNC/C=C/c1ccc(Br)cc1)c1cccc2cnccc12 :: 71
CC(C)(C)c1nc2c3ccc(F)cc3c3c(=O)[nH]ccc3c2[nH]1 :: 72

Your task in this section: give residual activity for each listed record.
1. O=C1Nc2ccccc2/C1=C\c1c(Cl)[nH]c2ccccc12
2. COc1cc2c(cc1OC)-c1n[nH]c(Nc3cccc(F)c3)c1C2
3. c1ccc(-c2cnc(Nc3ccc(OCCN4CCCC4)cc3)s2)cc1
4. Oc1cccc(-c2nc(N3CCOCC3)c3oc4ncccc4c3n2)c1
5. CCCCc1c(-c2ccc(O)cc2)[nH]c2nccnc12
6. O=C1C(Cl)=C(N2C(=O)CCC2=O)C(=O)c2ccccc21

Result:
84
59
75
96
80
95

// input: 3 compounds below; output: residual activity for each
1. O=c1cc(N2CCNCC2)oc2c(-c3ccccc3)cccc12
2. CC(C)c1nn(-c2c(Cl)cccc2Cl)c2nc(Cc3ccc(OCCO)cc3)[nH]c(=O)c12
3. O=C1NC(=O)C(c2cn(CCCn3ccnc3)c3ccccc23)=C1Nc1ccccc1

Result:
1. 95
2. 55
3. 21

====

study.system: Rhodopsin kinase GRK7 (Homo sapiens)
Sequence (whole entry): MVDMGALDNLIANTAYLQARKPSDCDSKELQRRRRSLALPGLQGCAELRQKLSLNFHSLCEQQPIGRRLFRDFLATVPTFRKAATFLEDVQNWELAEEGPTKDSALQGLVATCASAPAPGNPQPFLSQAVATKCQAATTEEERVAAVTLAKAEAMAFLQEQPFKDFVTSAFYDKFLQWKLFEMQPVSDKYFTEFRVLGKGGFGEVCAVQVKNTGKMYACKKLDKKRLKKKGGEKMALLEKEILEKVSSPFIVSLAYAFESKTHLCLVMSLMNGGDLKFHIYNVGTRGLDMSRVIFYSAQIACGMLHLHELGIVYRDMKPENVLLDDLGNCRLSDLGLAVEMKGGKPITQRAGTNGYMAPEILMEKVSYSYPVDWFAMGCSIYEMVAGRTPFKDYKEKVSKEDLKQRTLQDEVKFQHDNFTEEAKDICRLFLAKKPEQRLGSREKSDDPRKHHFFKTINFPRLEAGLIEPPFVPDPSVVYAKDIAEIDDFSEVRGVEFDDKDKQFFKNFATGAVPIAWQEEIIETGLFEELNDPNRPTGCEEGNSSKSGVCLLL
settings: at 1 µM
For each record, write down the corresponding residual activity.
One number for each entry, in %.

O=C1NC(=O)c2c1c1c3ccccc3[nH]c1n1cncc21 :: 84
c1ccc(-c2cnc(Nc3ccc(OCCN4CCCC4)cc3)s2)cc1 :: 105

Please find the next compound below.
Ask: Entry O=C(c1cc2cc(O)ccc2[nH]1)c1cc2cc(O)ccc2[nH]1 has what residual activity?
Result: 75
